Ref: the kinase profiling compilation of Christmann-Franck et al. (2016)

Biological target: BRSK2 (human) (UniProt Q8IWQ3)
Sequence (Q8IWQ3 whole entry, looked up): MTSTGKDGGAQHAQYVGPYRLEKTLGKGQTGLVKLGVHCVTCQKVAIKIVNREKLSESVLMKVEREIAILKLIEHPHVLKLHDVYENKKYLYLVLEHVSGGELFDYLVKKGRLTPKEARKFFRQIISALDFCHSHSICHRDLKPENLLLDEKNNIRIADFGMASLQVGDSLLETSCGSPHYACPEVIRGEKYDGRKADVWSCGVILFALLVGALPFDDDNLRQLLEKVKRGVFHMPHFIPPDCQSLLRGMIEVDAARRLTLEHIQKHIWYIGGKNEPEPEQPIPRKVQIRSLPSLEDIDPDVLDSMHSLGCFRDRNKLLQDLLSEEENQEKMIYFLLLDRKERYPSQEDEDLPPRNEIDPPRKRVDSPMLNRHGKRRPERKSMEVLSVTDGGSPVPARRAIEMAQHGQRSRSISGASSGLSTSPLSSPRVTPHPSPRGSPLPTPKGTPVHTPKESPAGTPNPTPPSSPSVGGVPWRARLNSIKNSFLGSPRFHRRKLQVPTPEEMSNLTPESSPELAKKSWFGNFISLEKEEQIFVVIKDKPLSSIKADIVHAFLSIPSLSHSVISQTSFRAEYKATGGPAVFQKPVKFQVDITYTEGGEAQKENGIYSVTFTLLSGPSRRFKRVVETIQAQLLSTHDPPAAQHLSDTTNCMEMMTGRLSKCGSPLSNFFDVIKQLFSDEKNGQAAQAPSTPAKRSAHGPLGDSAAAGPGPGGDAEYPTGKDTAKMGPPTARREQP
Test: radiometric filter-binding kinase assay
Settings: compound 100.0 µM; ATP 50 µM
endpoint: inhibition (%)

compound=Cc1cccc(C)c1-c1cn2nc(N)nc2cn1 recorded_measurement=18
compound=CC(C)(C)Nc1c(COCc2ccccc2)nc2[nH]cnn12 recorded_measurement=22
compound=Nc1nc2cnc(-c3ccccc3)cn2n1 recorded_measurement=28
compound="CC1CN(c2nc3ccccn3c(=O)c2N)CC(C)O1 (stereo not given)" recorded_measurement=32
compound=O=c1cc(-c2ccccc2F)nc2[nH]ccn12 recorded_measurement=24
compound=COc1ccc(NC(=S)Nc2cnc3[nH]cnn3c2=O)cn1 recorded_measurement=34
compound=CC(=O)Nc1nc2cnc(-c3c(C)cccc3C)cn2n1 recorded_measurement=11
compound=O=C(c1cccc(-c2cc3c(=O)[nH]cnc3s2)c1)N1CCOCC1 recorded_measurement=30
compound=COc1ccc(-c2cc3c(=O)[nH]cnc3s2)cc1OC recorded_measurement=9
compound=O=C(Nc1cnc2[nH]cnn2c1=O)c1ccccc1 recorded_measurement=22
compound=CC(=O)Nc1nc2cnc(-c3ccccc3)cn2n1 recorded_measurement=20
compound=O=C(Nc1cnc2[nH]ccn2c1=O)c1ccccc1 recorded_measurement=27
compound=CC(C)(C)Nc1c(C2CC2)nc2[nH]cnn12 recorded_measurement=26
compound=Nc1cnc2c(-c3c(F)cccc3F)cccn2c1=O recorded_measurement=43
compound=O=c1c(NC(=S)NCc2ccccc2)cnc2[nH]ccn12 recorded_measurement=18
